Test system: UACC-62 melanoma
method summary: NCI tumour cell line growth inhibition, 48 h
# TGI values compiled below

- molecule: "O=C(c1ccccc1)c1c(CC(O)c2cccnc2)n(C(=O)c2ccccc2)c2ccccc12 (configuration not stated)"
  TGI: "34.3 µM"
- molecule: "CCc1nc(N)nc(N)c1-c1ccc([N+](=O)[O-])c(NCc2ccccc2)c1"
  TGI: "35.7 µM"

Ask: // fetch UACC-62 melanoma TGI for CC1=C(C(=O)NC2CCCCC2)CC(C(=O)NC2CCCCC2)=C(C)N1
Result: > 100 µM

Ask: Give recorded TGI with UACC-62 melanoma for the following molecule: CC[N+]1(C)CCC(O)(c2ccc(C)cc2)C(C(=O)c2ccc(C)cc2)C1 (configuration not stated)
Result: > 100 µM

Ask: Form field - read-out: TGI; system: UACC-62 melanoma; submitted item: COc1cc2c3cc1Oc1c(OC)c(OC)cc4c1C(Cc1ccc(O)c(c1)Oc1ccc(cc1)CC3N(C)CC2)CN(C)C4 (configuration not stated)
Result: 32.1 µM

Ask: Fill in the recorded TGI for this molecule, with UACC-62 melanoma as test system: C#C[C@]1(O)CC[C@H]2[C@@H]3CC=C4c5nc(Nc6ccccn6)sc5CC[C@]4(C)[C@H]3CC[C@@]21C
Result: 2.68 µM

Ask: What is its TGI for UACC-62 melanoma? Entry: Nc1cc2c3c(cccc3c1)NC2=O
Result: > 100 µM
